assay: Plasma pharmacokinetics; format: in vivo, human; details: human, plasma, iv, 350 mg
measurement_name: MRT (h)
Note: unit h is implicit; provide only the numeric part.

Quick note, MRT for CC[C@@H]1C(=O)N(C)c2cnc(Nc3ccc(C(=O)N[C@H]4CC[C@H](N5CCN(CC6CC6)CC5)CC4)cc3OC)nc2N1C(C)C landed at 93

---

assay: Plasma pharmacokinetics; assay type: in vivo, human; conditions: human, plasma, iv, 200 mg
measurement_name: MRT (h)
Note: unit h is implicit; provide only the numeric part.

Quick note, MRT for CC[C@@H]1C(=O)N(C)c2cnc(Nc3ccc(C(=O)N[C@H]4CC[C@H](N5CCN(CC6CC6)CC5)CC4)cc3OC)nc2N1C(C)C landed at 98.2

---

experiment: Plasma pharmacokinetics; assay type: in vivo, human; settings: human, plasma, iv, 250 mg
measurement_name: AUC(0-inf) (ng·h/mL)
Note: unit ng·h/mL is implicit; provide only the numeric part.

Quick note, AUC(0-inf) for CC[C@@H]1C(=O)N(C)c2cnc(Nc3ccc(C(=O)N[C@H]4CC[C@H](N5CCN(CC6CC6)CC5)CC4)cc3OC)nc2N1C(C)C landed at 6140

---

assay: Plasma pharmacokinetics; type: in vivo, human; settings: human, plasma, iv, 100 mg
measurement_name: AUC(0-inf) (ng·h/mL)
Note: unit ng·h/mL is implicit; provide only the numeric part.

Quick note, AUC(0-inf) for CC[C@@H]1C(=O)N(C)c2cnc(Nc3ccc(C(=O)N[C@H]4CC[C@H](N5CCN(CC6CC6)CC5)CC4)cc3OC)nc2N1C(C)C landed at 2140

---

experiment: Plasma pharmacokinetics; type: in vivo, human; conditions: human, plasma, iv, 200 mg
measurement_name: Vd

Quick note, Vd for CC[C@@H]1C(=O)N(C)c2cnc(Nc3ccc(C(=O)N[C@H]4CC[C@H](N5CCN(CC6CC6)CC5)CC4)cc3OC)nc2N1C(C)C [volasertib] landed at 5980 L

---

assay: Plasma pharmacokinetics; assay type: in vivo, human; conditions: human, plasma, iv, 250 mg
measurement_name: clearance (mL/min)
Note: unit mL/min is implicit; provide only the numeric part.

Quick note, clearance for CC[C@@H]1C(=O)N(C)c2cnc(Nc3ccc(C(=O)N[C@H]4CC[C@H](N5CCN(CC6CC6)CC5)CC4)cc3OC)nc2N1C(C)C landed at 679

---

assay: Plasma pharmacokinetics; type: in vivo, human; conditions: human, plasma, iv, 100 mg
measurement_name: clearance (mL/min)
Note: unit mL/min is implicit; provide only the numeric part.

Quick note, clearance for CC[C@@H]1C(=O)N(C)c2cnc(Nc3ccc(C(=O)N[C@H]4CC[C@H](N5CCN(CC6CC6)CC5)CC4)cc3OC)nc2N1C(C)C landed at 780

---

assay: Plasma pharmacokinetics; assay type: in vivo, human; details: human, plasma, iv, 200 mg
measurement_name: clearance (mL/min)
Note: unit mL/min is implicit; provide only the numeric part.

Quick note, clearance for CC[C@@H]1C(=O)N(C)c2cnc(Nc3ccc(C(=O)N[C@H]4CC[C@H](N5CCN(CC6CC6)CC5)CC4)cc3OC)nc2N1C(C)C landed at 1020

---

assay: Plasma pharmacokinetics; format: in vivo, human; settings: human, plasma, iv, 250 mg
measurement_name: Vd (L)
Note: unit L is implicit; provide only the numeric part.

Quick note, Vd for CC[C@@H]1C(=O)N(C)c2cnc(Nc3ccc(C(=O)N[C@H]4CC[C@H](N5CCN(CC6CC6)CC5)CC4)cc3OC)nc2N1C(C)C landed at 4440

---

test: Plasma pharmacokinetics; format: in vivo, human; settings: human, plasma, iv, 250 mg
measurement_name: MRT (h)
Note: unit h is implicit; provide only the numeric part.

Quick note, MRT for CC[C@@H]1C(=O)N(C)c2cnc(Nc3ccc(C(=O)N[C@H]4CC[C@H](N5CCN(CC6CC6)CC5)CC4)cc3OC)nc2N1C(C)C landed at 109

---

test: Plasma pharmacokinetics; format: in vivo, human; conditions: human, plasma, iv, 200 mg
measurement_name: AUC(0-inf) (ng·h/mL)
Note: unit ng·h/mL is implicit; provide only the numeric part.

Quick note, AUC(0-inf) for CC[C@@H]1C(=O)N(C)c2cnc(Nc3ccc(C(=O)N[C@H]4CC[C@H](N5CCN(CC6CC6)CC5)CC4)cc3OC)nc2N1C(C)C landed at 3280

---

test: Plasma pharmacokinetics; format: in vivo, human; conditions: human, plasma, iv, 300 mg
measurement_name: clearance (mL/min)
Note: unit mL/min is implicit; provide only the numeric part.

Quick note, clearance for CC[C@@H]1C(=O)N(C)c2cnc(Nc3ccc(C(=O)N[C@H]4CC[C@H](N5CCN(CC6CC6)CC5)CC4)cc3OC)nc2N1C(C)C landed at 798

---

experiment: Plasma pharmacokinetics; format: in vivo, human; conditions: human, plasma, iv, 100 mg
measurement_name: MRT (h)
Note: unit h is implicit; provide only the numeric part.

Quick note, MRT for CC[C@@H]1C(=O)N(C)c2cnc(Nc3ccc(C(=O)N[C@H]4CC[C@H](N5CCN(CC6CC6)CC5)CC4)cc3OC)nc2N1C(C)C landed at 163

---

assay: Plasma pharmacokinetics; type: in vivo, human; conditions: human, plasma, iv
measurement_name: clearance

Quick note, clearance for CC[C@@H]1C(=O)N(C)c2cnc(Nc3ccc(C(=O)N[C@H]4CC[C@H](N5CCN(CC6CC6)CC5)CC4)cc3OC)nc2N1C(C)C landed at > 770 mL/min

---

test: Plasma pharmacokinetics; type: in vivo, human; conditions: human, plasma, iv, 100 mg
measurement_name: Vd
Please answer using a numeric value trailed by its unit.

Quick note, Vd for CC[C@@H]1C(=O)N(C)c2cnc(Nc3ccc(C(=O)N[C@H]4CC[C@H](N5CCN(CC6CC6)CC5)CC4)cc3OC)nc2N1C(C)C landed at 7600 L

---

assay: Plasma pharmacokinetics; type: in vivo, human; conditions: human, plasma, iv, 350 mg
measurement_name: AUC(0-inf) (ng·h/mL)
Note: unit ng·h/mL is implicit; provide only the numeric part.

Quick note, AUC(0-inf) for CC[C@@H]1C(=O)N(C)c2cnc(Nc3ccc(C(=O)N[C@H]4CC[C@H](N5CCN(CC6CC6)CC5)CC4)cc3OC)nc2N1C(C)C landed at 9790

---

test: Plasma pharmacokinetics; assay type: in vivo, human; conditions: human, plasma, iv, 350 mg
measurement_name: Vd (L)
Note: unit L is implicit; provide only the numeric part.

Quick note, Vd for CC[C@@H]1C(=O)N(C)c2cnc(Nc3ccc(C(=O)N[C@H]4CC[C@H](N5CCN(CC6CC6)CC5)CC4)cc3OC)nc2N1C(C)C landed at 3320

The reported numbers originate from paper PMC4021529.
